- test system: T1, ZFP SBS#1060 (synthetic)
- T1 chain: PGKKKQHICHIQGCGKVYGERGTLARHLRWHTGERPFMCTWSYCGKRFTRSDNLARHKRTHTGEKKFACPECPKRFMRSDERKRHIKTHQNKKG
- measurement protocol: EMSA
- condition details: tags: MBP fusion
observation type: Kd (nM)

# binder, reported measurement
rows = [
    ("GCGGAGGCC (dsDNA) DNA 1: GCGGAGGCC DNA 2: GGCCTCCGC", 0.69),
]

These measurements were taken from patent US20030068675.
